# systemTested: hMC4-R (Homo sapiens, UniProt P32245)
# Sequence (P32245 whole entry): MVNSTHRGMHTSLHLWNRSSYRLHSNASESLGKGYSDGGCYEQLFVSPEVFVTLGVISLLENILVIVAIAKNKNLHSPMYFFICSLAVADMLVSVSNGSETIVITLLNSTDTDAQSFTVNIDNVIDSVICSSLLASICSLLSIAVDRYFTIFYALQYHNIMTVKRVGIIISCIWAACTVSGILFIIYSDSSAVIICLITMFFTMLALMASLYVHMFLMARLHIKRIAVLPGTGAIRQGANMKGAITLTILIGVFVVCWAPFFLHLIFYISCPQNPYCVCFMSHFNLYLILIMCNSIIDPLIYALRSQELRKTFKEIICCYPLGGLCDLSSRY
# measurementProtocol: cyclic AMP bioassay, hMC4-R
endpointName: EC50 (nM)
Just the number please, in nM, no unit attached.

Fill in: EC50 of "CCCC[C@H](NC(C)=O)C(=O)N[C@H]1CSSC[C@@H](C(=O)NCCC(=O)N[C@@H](CCCNC(=N)N)C(=O)N[C@@H](CCCNC(=N)N)C(=O)N[C@@H](CCCNC(=N)N)C(=O)N[C@@H](CCCNC(=N)N)C(=O)N[C@@H](CCCNC(=N)N)C(=O)N[C@@H](CCC(N)=O)C(=O)N[C@@H](CCCNC(=N)N)C(=O)N[C@@H](CCCNC(=N)N)C(=O)N[C@@H](CCCNC(=N)N)C(N)=O)NC(=O)[C@H](Cc2c[nH]c3ccccc23)NC(=O)[C@H](CCCNC(=N)N)NC(=O)[C@@H](Cc2ccccc2)NC(=O)[C@H](Cc2c[nH]cn2)NC(=O)[C@@H](C)NC1=O" is ___
1.25

###

# systemTested: hMC3-R (Homo sapiens, UniProt P41968)
# Sequence (P41968 whole entry): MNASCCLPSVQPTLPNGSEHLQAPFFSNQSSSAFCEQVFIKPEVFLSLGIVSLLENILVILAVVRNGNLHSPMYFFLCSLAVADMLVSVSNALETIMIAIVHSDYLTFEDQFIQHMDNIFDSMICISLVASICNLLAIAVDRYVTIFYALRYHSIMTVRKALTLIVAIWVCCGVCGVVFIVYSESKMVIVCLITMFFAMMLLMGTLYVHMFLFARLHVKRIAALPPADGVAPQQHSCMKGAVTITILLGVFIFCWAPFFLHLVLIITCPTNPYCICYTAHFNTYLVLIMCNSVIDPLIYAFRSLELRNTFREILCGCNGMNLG
# measurementProtocol: cyclic AMP bioassay, hMC3-R
For each record, check the reported EC50: if it is below 3 nM write 1.0, else write 0.0.

Solved cases (4 shown):
CCCC[C@H](NC(C)=O)C(=O)N[C@H]1CSSC[C@@H](C(=O)NCCC(=O)NCC(=O)N[C@@H](CCCNC(=N)N)C(=O)N[C@@H](CCCNC(=N)N)C(=O)N[C@@H](CCCCN)C(=O)N[C@@H](CCCNC(=N)N)C(=O)N[C@@H](CCCNC(=N)N)C(=O)N[C@@H](CCC(N)=O)C(=O)N[C@@H](CCCNC(=N)N)C(=O)N[C@@H](CCCNC(=N)N)C(=O)N[C@@H](CCCNC(=N)N)C(N)=O)NC(=O)[C@H](Cc2c[nH]c3ccccc23)NC(=O)[C@H](CCCNC(=N)N)NC(=O)[C@@H](Cc2ccccc2)NC(=O)[C@H](Cc2c[nH]cn2)NC(=O)[C@@H](C)NC1=O    1.0
CCCC[C@H](NC(C)=O)C(=O)N[C@H]1CSSC[C@@H](C(=O)NCCC(=O)N[C@@H](CCCNC(=N)N)C(=O)N[C@@H](CCCNC(=N)N)C(=O)N[C@@H](CCCNC(=N)N)C(=O)N[C@@H](CCCNC(=N)N)C(=O)N[C@@H](CCCNC(=N)N)C(=O)N[C@@H](CCC(N)=O)C(=O)N[C@@H](CCCNC(=N)N)C(=O)N[C@@H](CCCNC(=N)N)C(=O)N[C@@H](CCCNC(=N)N)C(N)=O)NC(=O)[C@H](Cc2c[nH]c3ccccc23)NC(=O)[C@H](CCCNC(=N)N)NC(=O)[C@@H](Cc2ccccc2)NC(=O)[C@H](Cc2c[nH]cn2)NC(=O)[C@@H](C)NC1=O    0.0
CCCC[C@H](NC(C)=O)C(=O)N[C@H]1CSSC[C@@H](C(=O)NCCC(=O)NCC(=O)N[C@@H](CCCNC(=N)N)C(=O)N[C@@H](CCCCN)C(=O)N[C@@H](CCCNC(=N)N)C(=O)N[C@@H](CCCNC(=N)N)C(=O)N[C@@H](CCCNC(=N)N)C(=O)N[C@@H](CCC(N)=O)C(=O)N[C@@H](CCCNC(=N)N)C(=O)N[C@@H](CCCNC(=N)N)C(=O)N[C@@H](CCCNC(=N)N)C(N)=O)NC(=O)[C@H](Cc2c[nH]c3ccccc23)NC(=O)[C@H](CCCNC(=N)N)NC(=O)[C@@H](Cc2ccccc2)NC(=O)[C@H](Cc2c[nH]cn2)NC(=O)[C@@H](C)NC1=O    0.0
CCCC[C@H](NC(C)=O)C(=O)N[C@H]1CSSC[C@@H](C(=O)NCCC(=O)NCC(=O)N[C@@H](CCCNC(=N)N)C(=O)N[C@@H](CCCNC(=N)N)C(=O)N[C@@H](CCCNC(=N)N)C(=O)N[C@@H](CCCNC(=N)N)C(=O)N[C@@H](CCCNC(=N)N)C(=O)N[C@@H](CCC(N)=O)C(=O)N[C@@H](CCCNC(=N)N)C(=O)N[C@@H](CCCNC(=N)N)C(=O)N[C@@H](CCCNC(=N)N)C(N)=O)NC(=O)[C@H](Cc2c[nH]c3ccccc23)NC(=O)[C@H](CCCNC(=N)N)NC(=O)[C@@H](Cc2ccccc2)NC(=O)[C@H](Cc2c[nH]cn2)NC(=O)[C@@H](C)NC1=O    0.0

Turning to the following molecule.
Would you kindly verify if EC50 of "CCCC[C@H](NC(C)=O)C(=O)N[C@H]1CSSC[C@@H](C(=O)NCCC(=O)N[C@@H](CCCNC(=N)N)C(=O)N[C@@H](CCCCN)C(=O)N[C@@H](CCCNC(=N)N)C(=O)N[C@@H](CCCNC(=N)N)C(=O)N[C@@H](CCCNC(=N)N)C(=O)N[C@@H](CCC(N)=O)C(=O)N[C@@H](CCCNC(=N)N)C(=O)N[C@@H](CCCNC(=N)N)C(=O)N[C@@H](CCCNC(=N)N)C(N)=O)NC(=O)[C@H](Cc2c[nH]c3ccccc23)NC(=O)[C@H](CCCNC(=N)N)NC(=O)[C@@H](Cc2ccccc2)NC(=O)[C@H](Cc2c[nH]cn2)NC(=O)[C@@H](C)NC1=O" is strictly less than 3 nM?
1.0

###

# systemTested: hMC4-R (Homo sapiens, UniProt P32245)
# Construct: expressed in transfected cells; host or cells: CHO-K1
# measurementProtocol: cyclic AMP bioassay, hMC4-R
# Type: cell-based
endpointName: pEC50
For clarity, pEC50 is expressed as the negative log10 of concentration in mol/L.

Worked cases, pEC50 given:
CCCC[C@H](NC(C)=O)C(=O)N[C@H]1CSSC[C@@H](C(=O)NCCC(=O)N[C@@H](CCCNC(=N)N)C(=O)N[C@@H](CCCCN)C(=O)N[C@@H](CCCNC(=N)N)C(=O)N[C@@H](CCCNC(=N)N)C(=O)N[C@@H](CCCNC(=N)N)C(=O)N[C@@H](CCC(N)=O)C(=O)N[C@@H](CCCNC(=N)N)C(=O)N[C@@H](CCCNC(=N)N)C(=O)N[C@@H](CCCNC(=N)N)C(N)=O)NC(=O)[C@H](Cc2c[nH]c3ccccc23)NC(=O)[C@H](CCCNC(=N)N)NC(=O)[C@@H](Cc2ccccc2)NC(=O)[C@H](Cc2c[nH]cn2)NC(=O)[C@@H](C)NC1=O    9.40
CCCC[C@H](NC(C)=O)C(=O)N[C@H]1CSSC[C@@H](C(=O)NCCC(=O)NCC(=O)N[C@@H](CCCNC(=N)N)C(=O)N[C@@H](CCCNC(=N)N)C(=O)N[C@@H](CCCNC(=N)N)C(=O)N[C@@H](CCCNC(=N)N)C(=O)N[C@@H](CCCNC(=N)N)C(=O)N[C@@H](CCC(N)=O)C(=O)N[C@@H](CCCNC(=N)N)C(=O)N[C@@H](CCCNC(=N)N)C(=O)N[C@@H](CCCNC(=N)N)C(N)=O)NC(=O)[C@H](Cc2c[nH]c3ccccc23)NC(=O)[C@H](CCCNC(=N)N)NC(=O)[C@@H](Cc2ccccc2)NC(=O)[C@H](Cc2c[nH]cn2)NC(=O)[C@@H](C)NC1=O    9.02

Let us move to another entry and its pEC50.
Fill in: pEC50 of "CCCC[C@H](NC(C)=O)C(=O)N[C@H]1CSSC[C@@H](C(=O)NCCC(=O)NCC(=O)N[C@@H](CCCNC(=N)N)C(=O)N[C@@H](CCCNC(=N)N)C(=O)N[C@@H](CCCCN)C(=O)N[C@@H](CCCNC(=N)N)C(=O)N[C@@H](CCCNC(=N)N)C(=O)N[C@@H](CCC(N)=O)C(=O)N[C@@H](CCCNC(=N)N)C(=O)N[C@@H](CCCNC(=N)N)C(=O)N[C@@H](CCCNC(=N)N)C(N)=O)NC(=O)[C@H](Cc2c[nH]c3ccccc23)NC(=O)[C@H](CCCNC(=N)N)NC(=O)[C@@H](Cc2ccccc2)NC(=O)[C@H](Cc2c[nH]cn2)NC(=O)[C@@H](C)NC1=O" is ___
9.59

###

# systemTested: hMC5-R (Homo sapiens, UniProt P33032)
# Construct: expressed in transfected cells; host or cells: CHO-K1
# Sequence (P33032 whole entry): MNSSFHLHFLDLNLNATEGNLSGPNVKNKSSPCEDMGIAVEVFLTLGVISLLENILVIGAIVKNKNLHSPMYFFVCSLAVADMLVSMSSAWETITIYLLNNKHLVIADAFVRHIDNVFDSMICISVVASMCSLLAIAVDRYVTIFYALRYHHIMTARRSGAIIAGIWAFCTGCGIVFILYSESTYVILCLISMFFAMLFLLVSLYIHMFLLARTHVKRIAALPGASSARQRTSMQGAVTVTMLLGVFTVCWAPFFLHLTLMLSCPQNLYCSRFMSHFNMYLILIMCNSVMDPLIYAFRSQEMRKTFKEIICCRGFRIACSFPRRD
# measurementProtocol: cyclic AMP bioassay, hMC5-R
# Assay type: cell-based
endpointName: EC50

CCCC[C@H](NC(C)=O)C(=O)N[C@H]1CSSC[C@@H](C(=O)NCCC(=O)NCC(=O)N[C@@H](CCCNC(=N)N)C(=O)N[C@@H](CCCNC(=N)N)C(=O)N[C@@H](CCCCN)C(=O)N[C@@H](CCCNC(=N)N)C(=O)N[C@@H](CCCNC(=N)N)C(=O)N[C@@H](CCC(N)=O)C(=O)N[C@@H](CCCNC(=N)N)C(=O)N[C@@H](CCCNC(=N)N)C(=O)N[C@@H](CCCNC(=N)N)C(N)=O)NC(=O)[C@H](Cc2c[nH]c3ccccc23)NC(=O)[C@H](CCCNC(=N)N)NC(=O)[C@@H](Cc2ccccc2)NC(=O)[C@H](Cc2c[nH]cn2)NC(=O)[C@@H](C)NC1=O    500 nM

Fill in: EC50 of "CCCC[C@H](NC(C)=O)C(=O)N[C@H]1CSSC[C@@H](C(=O)NCCC(=O)N[C@@H](CCCNC(=N)N)C(=O)N[C@@H](CCCCN)C(=O)N[C@@H](CCCNC(=N)N)C(=O)N[C@@H](CCCNC(=N)N)C(=O)N[C@@H](CCCNC(=N)N)C(=O)N[C@@H](CCC(N)=O)C(=O)N[C@@H](CCCNC(=N)N)C(=O)N[C@@H](CCCNC(=N)N)C(=O)N[C@@H](CCCNC(=N)N)C(N)=O)NC(=O)[C@H](Cc2c[nH]c3ccccc23)NC(=O)[C@H](CCCNC(=N)N)NC(=O)[C@@H](Cc2ccccc2)NC(=O)[C@H](Cc2c[nH]cn2)NC(=O)[C@@H](C)NC1=O" is ___
199 nM

Data credit: patent US20090232838A1
